// provenance: patent US4443459A

METHOD: in vivo
COND: mouse, ip
READOUT KIND: LD50 at 48 h (mg/kg)
Please respond with the number in mg/kg and leave the unit unwritten.

Specify LD50 at 48 h for CCCCc1ccc(C(=O)O)nc1 [B, 5-butylpicolinic acid, reference compound] and stop.
89

====

Test system: Spontaneous hypertensive rats
METHOD: Maximum blood pressure lowering rate, oral (Table 4)
Format: in vivo
COND: Rattus norvegicus, 0.01 mmol/kg oral, ester of formula (I), read-out: Maximum blood pressure lowering rate (%) of the compound of the invention
READOUT KIND: inhibition in vivo at 10 µmol/kg

{"columns": ["MOLECULE", "SYSTEM NAME", "inhibition in vivo at 10 µmol/kg"],
 "data": [
  ["Cc1c(C)c2c(c(C)c1OC(=O)c1ccc(Cc3ccccc3)cn1)CCC(C)(CCCC(C)CCCC(C)CCCC(C)C)O2 (racemic) [Example 9, dl-α-tocopheryl 5-benzylpicolinate]", "Spontaneous hypertensive rats", "41%"]
]}

Specify inhibition in vivo at 10 µmol/kg for Cc1c(C)c2c(c(C)c1OC(=O)c1ccc(SCCCCl)cn1)CCC(C)(CCCC(C)CCCC(C)CCCC(C)C)O2 (racemic) and stop.
43%

Specify inhibition in vivo at 10 µmol/kg for CCCCOc1ccc(C(=O)Oc2c(C)c(C)c3c(c2C)CCC(C)(CCCC(C)CCCC(C)CCCC(C)C)O3)nc1 (racemic) [Example 14, dl-α-tocopheryl 5-butyloxypicolinate] and stop.
36%

Specify inhibition in vivo at 10 µmol/kg for CCCSc1ccc(C(=O)Oc2c(C)c(C)c3c(c2C)CCC(C)(CCCC(C)CCCC(C)CCCC(C)C)O3)nc1 (racemic) [Example 25, dl-α-tocopheryl 5-propylthiopicolate] and stop.
31%

Specify inhibition in vivo at 10 µmol/kg for Cc1c(C)c2c(c(C)c1OC(=O)c1ccc(CCC(Br)CBr)cn1)CCC(C)(CCCC(C)CCCC(C)CCCC(C)C)O2 (racemic) and stop.
53%
